Could you please report measured TGI for the items listed next?
- System: LOX IMVI melanoma
- Procedure Summary: NCI tumour cell line growth inhibition, 48 h

Cc1cc(Br)cc(C)c1NC(=O)C(=O)C(C(=O)c1ccc2ccccc2c1)C1OC(=O)c2ccccc21 (stereo unspecified) :: 31.1 µM
COCCOCc1nc(C#N)c(N)o1 :: > 100 µM
O=C(c1ccc(O)cc1)C1c2c3c(cc(O)c2C(c2ccc(O)cc2)C1c1cc(O)cc(O)c1)OC(c1ccc(O)cc1)C3c1cc2c(cc1O)OC(c1ccc(O)cc1)C2c1cc(O)cc(O)c1 (stereo unspecified) :: > 12.5 µM
C=C1CC(c2ccc(OCCCN3C(=O)c4ccccc4C3=O)c(OC)c2)OC1=O (stereo unspecified) :: 4.53 µM
COc1ccccc1C1C(C(=O)O)=C(CO)Oc2cc3c(cc21)OCO3 (stereo unspecified) :: > 100 µM

I need TGI for every entry listed below, if you could help.
1. Cc1cccc(-c2nc3ccc([N+](=O)[O-])cc3c(=O)o2)c1
2. O/N=C1/COC(C(F)(F)F)(C(F)(F)F)C1
3. Cc1ccc(Cl)cc1Nc1nc(C(F)(F)F)ccc1C(=O)N1CCN(c2ccc(F)cc2)CC1
4. O=[N+]([O-])c1cc2oc(COc3ccccc3)nc2cc1Cl
5. O=C(O)c1n[nH]nc1Cl
6. NC(N)=NCCN=C(N)N
7. C[C@]12C=CC(=O)C=C1CC[C@H]1[C@@H]3C[C@@H](O)[C@](O)(C(=O)CO)[C@@]3(C)C[C@H](O)[C@@]12F
8. CC1OC2CC(=O)OC2C2=C1C(=O)c1c(O)cccc1C2=O (stereo unspecified)

> 100 µM
> 100 µM
24.6 µM
35 µM
> 100 µM
> 100 µM
> 100 µM
0.129 µM

I need TGI for every entry listed below, if you could help.
1. O=S1(=O)OCCOS(=O)(=O)C1F
2. Cc1c2cccnc2c(C)c2c1c1cc(CO)ccc1n2C
3. NC(Cc1cccc([N+](=O)[O-])c1)C(=O)O (stereo unspecified)
4. CC1=CC(/C=C(\C)CCCc2ccoc2)C2(OC(=O)C(C)=C2O)[C@H]2C1CC[C@@H]2C (stereo partly specified)
5. COc1ccc(CC2c3cc(Oc4cc(CC5c6cc(OC)c(OC)cc6CCN5C)ccc4O)c(OC)cc3CCN2C)cc1 (stereo unspecified)
6. O=C(O/N=C1/CCCC/C1=C\c1ccccc1)c1ccccc1

> 100 µM
4.82 µM
> 100 µM
59.3 µM
10.7 µM
88.8 µM

###

- Test system: DMS 273 small cell lung
- Procedure Summary: NCI tumour cell line growth inhibition, 48 h
Observed Property: TGI

I need TGI for every entry listed below, if you could help.
1. Cc1ccc(S(=O)(=O)NCC2CCCCC2=O)cc1 (stereo unspecified)
2. COC(=O)C1=C(c2ccc3c(c2)OCO3)O[C@H](c2cc(OC)c(OC)c(OC)c2)[C@H]1COC(C)=O
3. COC(=O)C(C(=O)C(=O)Nc1cccc(OC)c1)c1cnc2ccccc2n1 (stereo unspecified)
4. O=S(O)CCCCSSCC(O)C(O)CSSCCCCS(=O)O (stereo unspecified)
5. COC(=O)C1=C(C)N(NC(=O)c2ccccc2)C(C)(O)C12CCOC2=O (stereo unspecified)
6. Cc1ccc(NC(=O)c2c(C)nc(=O)n3c2N(/N=C/c2ccc(Cl)cc2)CC3)cc1

["> 100 µM", "> 100 µM", "> 100 µM", "> 100 µM", "> 100 µM", "43.9 µM"]
